tested on: Saccharomyces cerevisiae; test: protein stability index of tFT-peptide fusion in wild type (PSI (0-1 scale)); higher = more stable (slower turnover); conditions: genetic background: wild type
EXPERIMENTAL_READOUT: protein stability index
One number for each entry.

# return protein stability index for each item in the list
1. PSLAASFWRTVG
2. LVVYLDCVACIN
3. RVTRLDANYFRI
4. LVVYLSCVACEN
5. AITLPMCPWLLR
6. KVTRLDAIYFRI

output:
[0.172, 0.0395, 0.689, 0.132, 0.652, 0.251]

# return protein stability index for each item in the list
1. KKEKKGQKQKIN
2. PDKRNHLIYLLN
3. GLYMCEVGCWFR
4. AITLPMCPLLLRW
5. RSQRVLLPLYFR
6. CTSNGYKFRTNN
7. ASLRVLLPLYFR

output:
1. 0.0774
2. 0.0898
3. 0.485
4. 0.0872
5. 0.308
6. 0.381
7. 0.285

# return protein stability index for each item in the list
1. RLIQPLPVQFLG
2. FSMRWTWRYWVN
3. GLYMCSVGCWFD
4. PSLAFSFWRVVG
5. PSLAAPFWRVVG

output:
1. 0.35
2. 0.0598
3. 0.471
4. 0.111
5. 0.182

====

test system: Saccharomyces cerevisiae; assay: protein stability index of tFT-peptide fusion (C-terminal peptide) (PSI (0-1 scale)); higher = more stable (slower turnover); settings: genetic background: das1 deletion; temperature: 30 C
EXPERIMENTAL_READOUT: protein stability index
Numbers only.

LVPLSLLLCFFV : 0.411

# return protein stability index for each item in the list
1. LWAPFWVSRVTA
2. VISVFAISTRVD

output:
0.408
0.409

====

Field: protein stability index. Provide a value for each of the sequences that follow.
system: Saccharomyces cerevisiae; experiment: protein stability index of tFT-peptide fusion (C-terminal peptide) (PSI (0-1 scale)); higher = more stable (slower turnover); settings: genetic background: das1 deletion; temperature: 37 C
Answers are plain numbers.

// solved cases for protein stability index follow
LSGVLFSLIRFY : 0.696
KDIFQIYTLYVF : 0.502
GGMGLWCCVSVG : 0.683
RVRRETRLRQIA : 0.71

# return protein stability index for each item in the list
1. WLYPVFKISYCV
2. YPPLFLLMRGVL
3. RNDCAYHVLQIV

output:
0.513
0.712
0.712

====

system: Saccharomyces cerevisiae; experiment: protein stability index of tFT-peptide fusion (C-terminal peptide) (PSI (0-1 scale)); higher = more stable (slower turnover); conditions: genetic background: wild type; temperature: 30 C
Our labelling divides records by protein stability index into ranges: bottom bin (below 0.6), middle bin (0.6 to below 0.7), top bin (0.7 or more)

Examples with answers:
TTCLYYDLQIPM : middle bin
VMLGGWRVPGER : top bin
LIVIGGGAVNGV : middle bin
FLVIILFFLYMR : bottom bin
GALANPLGHSHL : top bin
PRPETCHAVAVR : bottom bin
PKEQTHKKQHNI : bottom bin
SRFLPPSHLLPP : top bin
YGAGLSHLFRIS : middle bin
RCNKETKNKDVL : top bin

input: Assign a bin to VRCAAIKLIGRI
output: middle bin

input: Further, for GLCGVVFGGRGE ?
output: middle bin

input: Further, for LGVAFCAPRLFY ?
output: top bin

input: Further, for GAWASLPGLISP ?
output: top bin

input: Further, for LPPSLPPRLPPP ?
output: middle bin

input: Further, for GVAEGRKVGAST ?
output: middle bin

input: Further, for INKRKQKLIKKV ?
output: middle bin

input: Further, for WRPVSVVSPLSD ?
output: middle bin

input: Further, for FSISCFRVSSDF ?
output: top bin

input: Further, for GWAWGVALGVRG ?
output: bottom bin

input: Further, for SFSLPLSPPSFF ?
output: top bin

input: Further, for WSLPPLLSPLYF ?
output: middle bin

input: Further, for MFTFIQRPVAQV ?
output: middle bin

input: Further, for KKNLTHSIRVQA ?
output: bottom bin

input: Further, for PLPPPPPPPSTP ?
output: top bin

input: Further, for SFVFLVRRWLFV ?
output: bottom bin

input: Further, for LRRKSLHFSFPF ?
output: middle bin

input: Further, for LYKYPKRCVDIG ?
output: middle bin

input: Further, for PFLLDSMRALGL ?
output: top bin

input: Further, for RQTTTPHDRDGR ?
output: bottom bin

input: Further, for PFVFRPGPVPRV ?
output: middle bin

input: Further, for GSVLPPPAPPPL ?
output: middle bin

input: Further, for HGTRPFLAPMTP ?
output: middle bin

input: Further, for SASGARVEARMH ?
output: middle bin

input: Further, for DGTSKDSKWYMN ?
output: top bin

====

tested on: Saccharomyces cerevisiae; test: protein stability index of tFT-peptide fusion (C-terminal peptide) (PSI (0-1 scale)); higher = more stable (slower turnover); settings: genetic background: wild type; temperature: 30 C
Would you mind labelling by protein stability index? At or over 0.7 is y, under is n.

SLFPPAPPPPRS : n
LRQEVVRPEWYM : n
GSTRHFMSEKRE : y

input: Would you say GVVRLYYLRIGR shows protein stability index at minimum 0.7?
output: n

====

tested on: Saccharomyces cerevisiae; experiment: protein stability index of tFT-peptide fusion (C-terminal peptide) (PSI (0-1 scale)); higher = more stable (slower turnover); settings: genetic background: wild type; temperature: 37 C
EXPERIMENTAL_READOUT: protein stability index
Answers are plain numbers.

// solved cases for protein stability index follow
PALVVALLASVL : 0.504
GIVSGEGAVGVG : 0.499

// next entry
input: For the sequence VFFSLSLILFPF , what protein stability index is on record?
output: 0.49

====

test system: Saccharomyces cerevisiae; test: protein stability index of tFT-peptide fusion (C-terminal peptide) (PSI (0-1 scale)); higher = more stable (slower turnover); conditions: genetic background: das1 deletion; temperature: 37 C
Would you mind labelling by protein stability index? At or over 0.5 is MET, under is NOT MET.

input: Would you say RVWTTVFIIRAT shows protein stability index at minimum 0.5?
output: MET

====

test system: Saccharomyces cerevisiae; test: protein stability index of tFT-peptide fusion (C-terminal peptide) (PSI (0-1 scale)); higher = more stable (slower turnover); conditions: genetic background: das1 deletion; temperature: 37 C
Field: protein stability index. Provide a value for each of the sequences that follow.
One number for each entry.

// solved cases for protein stability index follow
PPSRSPLPPLLH : 0.707
VAGGFWCWGMVG : 0.788
VSLSEVAIIVHG : 0.596
FVVLVFMLGSVC : 0.454
LVLVVFCPLWFW : 0.579
PWEYSSQLVLVI : 0.207

# return protein stability index for each item in the list
1. CFFICGVFVFLM
2. VSFFCLICRVYP

output:
[0.435, 0.481]

====

Field: protein stability index. Provide a value for each of the sequences that follow.
system: Saccharomyces cerevisiae; assay: protein stability index of tFT-peptide fusion (C-terminal peptide) (PSI (0-1 scale)); higher = more stable (slower turnover); details: genetic background: wild type; temperature: 30 C
Answers are plain numbers.

# return protein stability index for each item in the list
1. SWSRAAYKGPWG
2. LGPRRPGQSGSR
3. PKPDFPGRHLSR
4. RRRPNSSMYRVS
5. PPPSFPPFFPSF
6. LNPLAILCSSVF
7. PPVPRLLPVLAP

output:
0.702
0.712
0.654
0.658
0.731
0.617
0.474

====

tested on: Saccharomyces cerevisiae; experiment: protein stability index of tFT-peptide fusion (C-terminal peptide) (PSI (0-1 scale)); higher = more stable (slower turnover); details: genetic background: wild type; temperature: 30 C
EXPERIMENTAL_READOUT: protein stability index
One number for each entry.

// solved cases for protein stability index follow
GDLVNAIMSLSK [EGD2 C-terminal 12 aa] : 0.696
CEYGTNAIDALI [YER091C-A C-terminal 12 aa] : 0.692
EPMESLRSTTKY [PTR2 C-terminal 12 aa] : 0.697
EFEILDAKKEKD [PIM1 C-terminal 12 aa] : 0.681
WTLLSRFLDREW [ATG36 C-terminal 12 aa] : 0.694
YKIKKQPRKKQQ [HST1 C-terminal 12 aa] : 0.708
VKEIPEYSHLID [GCN5 C-terminal 12 aa] : 0.697
QSQYSSRFVELD [MCO12 C-terminal 12 aa] : 0.689

// next entry
input: For the sequence VDESWLPETYKK [IRC22 C-terminal 12 aa] , what protein stability index is on record?
output: 0.711

====

system: Saccharomyces cerevisiae; assay: protein stability index of tFT-peptide fusion (C-terminal peptide) (PSI (0-1 scale)); higher = more stable (slower turnover); conditions: genetic background: wild type; temperature: 30 C
Would you mind labelling by protein stability index? At or over 0.7 is y, under is n.

Examples with answers:
PLSLIAFAISPC : n
FPLPPPPPAVFL : n
KTSQYKPREKID : y
GPRVFKPRTTHG : n
TPPIPTTTSNFS : y
PPLPRLPPPPLP : n

Let's switch to this sequence now.
input: Would you say AAALPSNLLSSF shows protein stability index at minimum 0.7?
output: n
